ASSAYED_TARGET: OCTN2 (organic cation/carnitine transporter 2) (Mus musculus)
ASSAY_OVERVIEW: TP_TRANSPORTER: inhibition of Carnitine uptake (Carnitine: 0.01 uM, Acetyl-beta-methylcholine: 500 uM) in OCTN2-expressing HEK293 cells
Type: functional, cell-based
Parameters: scale not given: the % may be the effect or the level left
CONDITION_INFO: human, HEK293 cells that express OCTN2, probe carnitine; read-out: Activity
PROPERTY: activity at 500 µM (%)
Give bare numbers, in %.

Specify reported activity at 500 µM for the compound shown: CC(=O)OC(C)C[N+](C)(C)C (stereo unspecified)
82.5

---

ASSAYED_TARGET: OCTN2 (organic cation/carnitine transporter 2) (Mus musculus, UniProt Q9Z0E8)
Sequence (Q9Z0E8 whole entry): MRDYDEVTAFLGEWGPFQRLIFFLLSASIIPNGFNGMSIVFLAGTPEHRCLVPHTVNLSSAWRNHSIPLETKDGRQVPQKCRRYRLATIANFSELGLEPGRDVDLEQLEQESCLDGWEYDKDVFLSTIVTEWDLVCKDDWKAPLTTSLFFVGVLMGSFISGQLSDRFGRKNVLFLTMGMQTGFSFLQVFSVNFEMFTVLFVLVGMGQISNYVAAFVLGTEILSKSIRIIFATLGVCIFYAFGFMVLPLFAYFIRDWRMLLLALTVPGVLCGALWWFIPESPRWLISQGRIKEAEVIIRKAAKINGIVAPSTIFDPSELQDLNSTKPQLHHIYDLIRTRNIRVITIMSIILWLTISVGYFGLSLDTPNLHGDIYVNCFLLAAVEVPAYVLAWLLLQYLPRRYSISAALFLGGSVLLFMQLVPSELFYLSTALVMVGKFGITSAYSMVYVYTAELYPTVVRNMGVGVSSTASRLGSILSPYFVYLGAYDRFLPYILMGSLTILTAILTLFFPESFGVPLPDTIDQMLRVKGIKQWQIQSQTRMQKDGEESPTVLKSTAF
ASSAY_OVERVIEW: in vitro
CONDITION_INFO: human, HEK293 cells that express OCTN2, probe carnitine
Description: TP_TRANSPORTER: inhibition of Carnitine uptake (Carnitine: 0.01 uM, Choline: 500 uM) in OCTN2-expressing HEK293 cells
PROPERTY: activity at 500 µM
Units required after the number.

Specify reported activity at 500 µM for the compound shown: C[N+](C)(C)CCO [CHOLINE]
74.6%

src = ChEMBL document CHEMBL2074332
